Assay: soluble fraction after stress (log2 fold change); higher = more stays soluble; pooled small domains, quantitative proteomics
Conditions: stress: pH 4
// class assignment uses soluble fraction (log2) with these ranges: lower level: < -0.4; middle level: ≥ -0.4 and < 0.06; upper level: ≥ 0.06

| Input sequence | Class |
| --- | --- |
| HMDTPMQEAVLQRLRDKVAQAAAGSKLPTVRQLIADYGVGQHVIQAALEKLRTEGLITSHVGKGTFVG | upper level |
| HMRKEEFIRELVLELKQNVSEQVILEQKRFYEEYILTEVRGGKTEEEVIASLSEPRLLAKSIIDAAEAGGD | lower level |
| HMSSGLLTVQEQRILEHLANGERNGDIAGRLHISEGTVKWHLHNMYRKLDAATRTQAVARARALRL | lower level |
| HMKSDEGEIKKIVEEIISKNASVVEDYKKGKEVALQFLVGQGMKATKGSANPELLKKIILENI | middle level |
| HMKNKFYEEFSDYIFKHTGIHYAEANYYQLDARINKLMKFLETSDENDVLKAIQGGAVKDQRVHQMIVDLA | lower level |
| HMDMTPEEFLAWARHKPFGDPFPKTQTVTFLVPLLGVSRTNIFTWISGKVNPSKTSLLLMEALKRENR | lower level |
| HMRKVVLEEKEANYYAEPNSESELLGVLKRGIHLTVTDVKKEAGSDGWVKLVHPDGQEGWISGRARIRV | middle level |
| HMYRLDVEISDEIKRDIDEETLSEIKGIIAEDPRPSYQNDETRIYRFTFAGREISFRVKDRTATVTEIL | lower level |
| HMFDPTDLPEKQLMVYEIIKSNNGINMTNIASLLGFNKTTVDNAIRALKKKEIVVFKGTNRSGGYFNT | upper level |
| HMLAFDKDDSGAVAEIILVLGRYWMDFSHKKYPAAEGVALRHKGLSHIFTVLRPYLSTPASELIGERLRR | upper level |
| HMKETERKILQAVLGLPLKYRDVIHLFYYEEMSVKEIAEVLHRQESTVTSQLTRARGILKKNL | middle level |
| HMPVPSPAEQTATQLANIERHTGITVDGWTRAIAEAGAAKHGEIVAWLKQQGLTHGNANALAHAVRARQSG | upper level |
| HMELVQIIGNNIRDLMTTRSVTITDLANYLNVSRQTLQNYLRGSNIIDSVKLVAVSDFFDVPVESLLQSK | lower level |
| HMSTFAQNLRALMEKRGVSQNELARSAGLTQSAINKILTGKTKQPGIDTTEAIARVLNVSVAQLIYT | upper level |
| HMSKEEAIQAMKEGKKVTHRFFSSDEWMTIENGFLLLEDGVRISLEDFFNFRSDSLWDNGYELYNPH | lower level |
| HMDPTEPLFVGVVTAEPYLNIREYPTTQSKDLGDLFPGMHVNVYEIVPNWYRIDDGWVASAWVKRDWGGG | middle level |
| HMLTTADLMMVHANSNKAIDYIVTDDNTKLTVDEPVTAKWITTADSIYRAVAYYNKVGDGKAQIVSVGN | middle level |

* * *

Catalogue of sequences with associated soluble fraction (log2)
Experiment: soluble fraction after stress (log2 fold change); higher = more stays soluble; pooled small domains, quantitative proteomics
Conditions: stress: pH 4
Measurement type: soluble fraction (log2)

| Input sequence | Measurement type | Value comparator | Endpoint result |
| --- | --- | --- | --- |
| HMAFDESLVRSIQELLSELGYSPGKIDGLLGAKTVAAIKAFELEINKDQLTGEPSEELLIALQLAIRSSKM | soluble fraction (log2) | = | -0.968 |
| HMPMHPEDLKKLVSIEMPFGKHKGRIIADLPGNYLNWFAREGFPPGEIGRLLQLMQEIDHNGLSDLLKPLR | soluble fraction (log2) | = | -0.645 |
| HMEKPTEITLSNRVSVQELAEKMYVSETDIIRTLFLDGRIININQVLDIDTAIRVGEQLGIKIKII | soluble fraction (log2) | = | -1.49 |
| HMNAYEVLIPNIYIGQRVDQTLASLFPQFSRSRLQNWLARGNLLIDGEIIKPKTKVLGGEQIIILDT | soluble fraction (log2) | = | -1.05 |
| HMEQSLNTYSIRTVKESLFLAETKNLNKIEKLVEGIEGRLTLSEALVLFSDKLNAMSVLSHVNANT | soluble fraction (log2) | = | -0.273 |
| HMFDITKEVLKQSGLYNLYKNDESLEGINRIQNIEELLNGIKDFVENNEKSQASVSSFLQDVALATDQ | soluble fraction (log2) | = | -0.217 |
| HMDVTDRLARRLQGLRSAQGLSLDALAARSGVSRSNISLIERGQSSPTATVLDKLSAALGVTLAALFEEP | soluble fraction (log2) | = | 0.00664 |
| HMQHYQFEVDEASSKKRLDVFLSENLPEISRSRLKKLIDEKRVTVNEMSRPAGYKVRVKEKIEFHIPPL | soluble fraction (log2) | = | -0.317 |
| HMTKEEKEKREKYEKLMKKADELVTAKNHKEAVTVLGQAKAYANPQQTKEIEEKIKAQTAELDKG | soluble fraction (log2) | = | 0.24 |
| HMIFEETVFKDIAFGPKNMGLSEAEIKRRVYETAENIGLSQELMERSPFELSGGQKRRVAIAGVMAMEP | soluble fraction (log2) | = | -0.878 |
| HMGPWTETAAKGDAVSKRMLITWLQENADAEFLAAQKLTGQATSVAKRVTKDQLVELYLSVTTAA | soluble fraction (log2) | = | -0.149 |
| HMVAQEVPYSTFVMRLDRNEVDAVKIIDGNEIEGTFKSPNGDLVQFKTLIPYQDTELMPLLKQKGVRISGS | soluble fraction (log2) | ≥ | 0.43 |
| HMNSNISYSEFLSQVEKGTINSVEITGNSIKGIYADGGEFITFSPGDPGLIDKLQRSDIEILATPPA | soluble fraction (log2) | = | -0.593 |
| HMRQSDIAAAFRESILRSSKGFQYLHTRDFVTALRRRGIHLSEVEANSWIAREKTYFVDSALDHSENRLWI | soluble fraction (log2) | = | -0.634 |
| HMNDVEAIDDALKDLHKVSPDLAALVEMKFFGGMTEPEISEILGVSERTVRREWEKARAALLVLLE | soluble fraction (log2) | = | -1.18 |
| HMYPDNSGDIQQLAQNIFRQENVSVDRDGLALISSRLGSDHAATRSEIEKLALLAGPGGTLTFETISEVLG | soluble fraction (log2) | = | -0.942 |
| HMRSGEDESFSAGLLEYPHYTRPAEFEGHRIPDILTSGDHAKVDAWRQEMSEHITRERRPDLWEMYKKK | soluble fraction (log2) | = | 0.0228 |
| HMGHASPGNREALQFALERHQARAAEFAEKAGLSIANASTKFKQLWEQGFLMRNESVADSGGVEFLYQR | soluble fraction (log2) | = | -0.0683 |
| HMDSESGAIIRRAVAQLAPKFRSTIVLRLIEGYSTEETAQILQLPVGTVLSRLARAKVQLMNLLTPYKEL | soluble fraction (log2) | = | -0.0277 |
| HMEDIKHVVANNIKKYRKEERLTLQQLSYLTGVSKTMLNQIETEKSSPSITILWRISSGLKIPLSKLISSP | soluble fraction (log2) | = | 0.143 |
| HMVLIQNEDVKDISNYPLLSSVPVFDVFNNKMIIPTFNKDSFNPLIYNFNFNSKRRLIYRVDNTNYLIVIK | soluble fraction (log2) | = | -0.241 |
| HMAKDDFMSFVKAVWPEFIEGAHHRVIAQKFNDLATGKITRLIVNMPPRHTKSEFASYLLPAW | soluble fraction (log2) | = | -0.144 |
| HMQNYNLTQQEKKVLQLLVSGKSYKMIAAELNVAFDTVKSHITNIYSKLHVHSGTEAVSVAIRDKI | soluble fraction (log2) | = | 0.199 |
| HMQAVDPLELRAGDFVVHEQHGIGRYVEMVQRTIGGITREYLVIEYAPAKRGQPNDRVFVPTDTLEQVS | soluble fraction (log2) | = | -0.579 |
| HMRESPYRRVAKFLLLIGTAEAAKIVSRLDQDQVEKVMLELSGIRSVPRDEATVILAEFESLLQQAR | soluble fraction (log2) | = | -1.2 |
| HMDALKAVYQWVTRTMMKNQTGVMQTLPNRDLIELNTQITAQRLMQAGVDPTTLKNANQVENAVNIIESR | soluble fraction (log2) | = | -0.193 |
| HMHSEISGGSKDPFRFMPHLGVEDIHAETDRLSGSGVEFIREPDQESWGGWVATFKDPDGNILQLLQL | soluble fraction (log2) | = | -0.0468 |
| HMTKQRSAIMNLLAERNTPLTAEEIGEAIAPSYPKLALSTVYRNLELFTNAGLLEKSFFQDGITRYSLTK | soluble fraction (log2) | = | -0.242 |
| HMSILPGVYRHYKGNHYQVFYLAKHSETLEDMVVYQALYGERGIWVRPASMWNETVDDQGKQVKRFTYI | soluble fraction (log2) | = | -1.22 |
| HMIFDPTTLPEKQLLVYGIISSHPGLNAKQISEMLTLKKSSIETAIKGLRKKEIIEYEGTTRNGG | soluble fraction (log2) | = | -0.17 |
| HMFFDSDTDIQNALNAENSIKKYQLFRTQTLYNSAQSDIDFVNQPEVKAKLFDALENLKNKLGFLAEPT | soluble fraction (log2) | = | -0.4 |
| HMSLHSITIPQEFIGAVIGPGGKVIQEIQKQTGTTITITEKDNKGYVDIFGEDKGALDSALARIKEIVAIP | soluble fraction (log2) | = | -0.277 |
| HMIPNEKEAARWDALTAEHTAKLNALEGDALDKVGSHEDVSIKRAGVGDAAFREKILSRTHPDDLERALST | soluble fraction (log2) | = | 0.3 |
